# Test system: OVCAR-3
# protocol_details: NCI tumour cell line growth inhibition, 48 h
Calls of active or inactive are those of the source. Cut-off read from the data, not from the text of the source: active = GI50 up to about 1.1 µM and inactive = higher. *1 amine or outer side, *2 acyl side, *3 side chain or, on linkers, in order; H or OH if unused. Where a SMILES comes first, the peptide text is derived from it. Bridges are numbered along the chain shown (N, C = ends). [ ]: non-standard residue; d: D form. The star is where a group is joined. ξ: configuration not given here. ξOrn(4,5-diOH) = O=C(C(CC(O)C(O)N[*:3])N[*:1])[*:2]; ξhTyr(βξ-OH,γξ-OH) = NC(C(=O)O)C(O)C(O)c1ccc(O)cc1; ξPro(3ξ-OH,4ξ-Me) = CC1CNC(C(=O)O)C1O; X55 = CCCCC/C=C/C/C=C\CCCCCCCC(=O)*; Hyp = O=C(O)[CH]1C[CH](O)CN1
metric_name: GI50

Worked cases, answers included:
[
  {
    "compound": "FC(F)(F)c1n[nH]c(SCc2ccc(Cl)cc2)n1",
    "metric_name": "GI50",
    "result": "> 100 µM (inactive)"
  },
  {
    "compound": "C[C@]12CC[C@H]3[C@@H](CC=C4C[C@@H](N5CCCC5)CC[C@@]43C)[C@@H]1C[C@H](N1CCOCC1)[C@@H]2O",
    "metric_name": "GI50",
    "result": "> 100 µM (inactive)"
  },
  {
    "compound": "OC(c1cccnc1Cl)c1nc2ccccc2c2ccnc(Cl)c12 (stereo unspecified)",
    "metric_name": "GI50",
    "result": "6.08 µM (inactive)"
  },
  {
    "compound": "CCCCCCCCCCCCCCCCNCC(O)CN (stereo unspecified)",
    "metric_name": "GI50",
    "result": "2.52 µM (inactive)"
  },
  {
    "compound": "CCCCC/C=C/C/C=C\\CCCCCCCC(=O)NC1CC(O)C(O)NC(=O)C2C(O)C(C)CN2C(=O)C(C(C)O)NC(=O)C(C(O)C(O)c2ccc(O)cc2)NC(=O)C2CC(O)CN2C(=O)C(C(C)O)NC1=O (stereo not drawn) (X55-[ξOrn(4,5-diOH)]T[Hyp][ξhTyr(βξ-OH,γξ-OH)]T[ξPro(3ξ-OH,4ξ-Me)]; lactam 1-C; configuration not given here)",
    "metric_name": "GI50",
    "result": "> 100 µM (inactive)"
  },
  {
    "compound": "CC(C)(C)OC(=O)NC(Cc1ccc(OCc2ccccc2)cn1)C(=O)N1CCCC1 (stereo unspecified)",
    "metric_name": "GI50",
    "result": "25.6 µM (inactive)"
  },
  {
    "compound": "CCC(C)CNC1=C(NC(C)=O)C(=O)c2ccccc2C1=O (stereo unspecified)",
    "metric_name": "GI50",
    "result": "55.7 µM (inactive)"
  },
  {
    "compound": "COc1ccc(-n2sc3ncc([N+](=O)[O-])cc3c2=O)cc1",
    "metric_name": "GI50",
    "result": "> 100 µM (inactive)"
  }
]

Inquiry: Given the entry `N#C/C(=C\c1ccc(O)c(O)c1)c1c(C#N)c(N)nn1-c1ccccc1` , report its measured GI50.
Reply text: 2.04 µM (inactive)

Inquiry: Query (compound): `O=C(N/C(=C\c1ccc(/C=C(\NC(=O)c2ccccc2)c2nc3c(O)nc(S)nc3[nH]2)cc1)c1nc2c(O)nc(S)nc2[nH]1)c1ccccc1` ; field requested: GI50
Reply text: > 100 µM (inactive)

Inquiry: Looking for the measured GI50 of `Cc1cn2c(/C=C3/C(=O)Nc4ccccc43)c(-c3ccccc3)nc2s1` , can you help?
Reply text: 85.3 µM (inactive)

Inquiry: So what does the record say about GI50 for `C/C=C(/C)C(=O)O[C@H]1CCN2CC=C(COC(=O)[C@@](O)([C@H](C)OC)C(C)(C)O)[C@H]12` ?
Reply text: > 100 µM (inactive)

---

# Test system: MDA-MB-435
# protocol_details: NCI tumour cell line growth inhibition, 48 h
Calls of active or inactive are those of the source. Cut-off read from the data, not from the text of the source: active = GI50 up to about 1.1 µM and inactive = higher.
Tick one outcome: active, inactive

// below: answered molecules
[
  {
    "molecule": "C=C1C(=O)OC2CC(=C)C3CC=C(C)C3CC12 (configuration not stated)",
    "label_class": "inactive"
  },
  {
    "molecule": "N/N=C1/C(=N/O)CCc2nonc21",
    "label_class": "inactive"
  },
  {
    "molecule": "CC(C)(C)c1ccc(NS(=O)(=O)c2ccc(N)cc2)cc1",
    "label_class": "inactive"
  },
  {
    "molecule": "CCOc1cc2c(cc1O)C(=O)C[C@@H]1[C@@H]2CC[C@]2(C)[C@@H](O)CC[C@@H]12",
    "label_class": "active"
  },
  {
    "molecule": "O=C(NNC(=O)c1ccco1)c1ccco1",
    "label_class": "inactive"
  }
]

Inquiry: Assay outcome for C#CC(O)/C=C/C(O)CCCC(O)CC#CC(O)C#CCCCCC(O)/C=C/CCCCCC(=O)CCCCCCCCCCCCCC(O)C(O)C#CC(=O)O (configuration not stated) : what was it?
Reply text: inactive

Inquiry: What outcome does the record of this test show for `Cc1ccc2c(/C=C/c3ccc(N(C)C)cc3)ccc(C(C)C)cc1-2` ?
Reply text: inactive

---

# Tested on: U-251
# protocol_details: NCI tumour cell line growth inhibition, 48 h
Calls of active or inactive are those of the source. No stated cut-off is given here; in the data, active = GI50 up to about 1.1 µM and inactive = higher.
Respond using exactly one of the listed classes: active, inactive

Inquiry: Hi, do you know how `CC1=NN(c2nc(N)nc(/C(C#N)=C\c3ccc([N+](=O)[O-])s3)n2)C(C)(C)C1` came out in this test?
Reply text: active

Inquiry: Outcome logged for `Cc1ccc(NC(=O)c2cc3cc(/N=N/c4ccccc4C(=O)O)ccc3oc2=O)cc1` in this assay:
Reply text: inactive

Inquiry: Could you check what this test reported for `CC(C)Oc1c(N(Cc2ccccc2)c2ccccc2C2SCCCS2)c(=O)c1=O` ?
Reply text: inactive

Inquiry: What did the test return for `c1ccc2c(c1)SCCCS2` ?
Reply text: inactive

Inquiry: Short answer needed: outcome of this test for `OCCSCc1cc2c(O)c(c1)Cc1cc(CSCCO)cc(c1O)Cc1cc(CSCCO)cc(c1O)Cc1cc(CSCCO)cc(c1O)C2` ?
Reply text: inactive

Inquiry: Outcome? `O/N=C\c1c2c(cc3c1CCC3)CCC2`
Reply text: inactive

Inquiry: How was `CC(=O)Nc1ccc2nncnc2c1` classified in this test?
Reply text: inactive

Inquiry: Write down the call the test reported for this compound. Item: `CC(C)c1c2[nH]c3ccccc3c2c(C(C)C)c2[nH]c3ccccc3c12`
Reply text: inactive

---

# System: MDA-MB-435
# protocol_details: NCI tumour cell line growth inhibition, 48 h
Activity calls are given as the source filed them. Cut-off read from the data, not from the text of the source: active = GI50 up to about 1.1 µM and inactive = higher.
metric_name: GI50

[
  {
    "molecule": "Cc1cc(C)c2c(n1)S(=O)(=O)N(CCCN1CCN(c3cccc(Cl)c3)CC1)C(C(=O)c1ccc(Br)cc1)=C2O",
    "GI50": "18.2 µM (inactive)"
  },
  {
    "molecule": "O=[N+]([O-])/C(Cl)=C(\\Nc1ccccc1)C(Cl)=C(Cl)Cl",
    "GI50": "18.5 µM (inactive)"
  },
  {
    "molecule": "CCOC(=O)CCC(NC(=O)c1ccc(NCc2ccc3nc(-c4ccccc4)c(Cl)nc3c2)c2ccccc12)C(=O)OCC (stereo not drawn)",
    "GI50": "> 100 µM (inactive)"
  },
  {
    "molecule": "C[C@H](C1CC(C)(O)C(C)(O)C(O)O1)[C@H]1CC[C@H]2[C@@H]3[C@@H]4O[C@@H]4[C@@]4(O)CC=CC(=O)[C@]4(C)[C@H]3CC[C@]12C (stereo partly drawn)",
    "GI50": "> 50 µM (inactive)"
  },
  {
    "molecule": "O=C1/C(=C/c2ccc(Cl)cc2)N=C(c2ccccc2)N1c1nc2c(Cl)cc(Cl)cc2s1",
    "GI50": "24.7 µM (inactive)"
  }
]

Inquiry: Request the reported GI50 associated with COC(=O)C(Cc1ccc2c(c1)CCCC2)Cc1cc2c(cc1C(O)OC)CCC2 (stereo not drawn)
Reply text: 38.2 µM (inactive)

Inquiry: Give its GI50 value. Item: `COc1ccc(N2C(=O)C(=O)C3(CCCCC3)C2=O)c(OC)c1OC`
Reply text: > 100 µM (inactive)

Inquiry: Query (molecule): `O=S(=O)(O)c1ccc2c(/N=N\c3cccc4ccccc34)c(O)c(S(=O)(=O)O)cc2c1` ; field requested: GI50
Reply text: > 100 µM (inactive)

---

# Tested on: MOLT-4
# protocol_details: NCI tumour cell line growth inhibition, 48 h
Activity calls are given as the source filed them. Rule as the data show it: active = GI50 up to about 1.1 µM and inactive = higher.
Entries and their measured GI50 follow.

A selection of reference data follows.
[
  {
    "molecule": "CC(C)c1c2[nH]c3ccccc3c2c(C(C)C)c2[nH]c3ccccc3c12",
    "result": "> 63.2 µM (inactive)"
  },
  {
    "molecule": "C[C@H](C1CC(C)(O)C(C)(O)C(O)O1)[C@H]1CC[C@H]2[C@@H]3[C@@H]4O[C@@H]4[C@@]4(O)CC=CC(=O)[C@]4(C)[C@H]3CC[C@]12C (stereo partly specified)",
    "result": "> 50 µM (inactive)"
  },
  {
    "molecule": "COC(=O)[C@H](Cc1ccccc1)NC(=O)c1ccc(CNC(=O)/C=C/c2csc(-c3ccccc3)n2)cc1",
    "result": "1.75 µM (inactive)"
  },
  {
    "molecule": "CCn1c(-c2cc3ccccc3cc2OC(C)=O)n[nH]c1=S",
    "result": "18.7 µM (inactive)"
  },
  {
    "molecule": "O=C(O)c1ccc(SSc2ccc(C(=O)O)cn2)nc1",
    "result": "> 100 µM (inactive)"
  }
]

Inquiry: I'd like to know its GI50. The molecule in question is Nc1ncnc2c1ncn2[C@]1(CO)C=C(CO)C(O)C1O (stereo partly specified)
Reply text: > 100 µM (inactive)

Inquiry: Return reported GI50; argument: `O=[N+]([O-])c1ccc(/N=N/c2c(O)ccc3ccccc23)cc1`
Reply text: 95.1 µM (inactive)

Inquiry: Look up GI50: `O=C(O)c1cccc(SSc2cccc(C(=O)O)c2)c1`
Reply text: > 100 µM (inactive)

Inquiry: Please report the recorded GI50 for `O=C1COc2cc(N3CCN(c4cccc(C(F)(F)F)c4)CC3)ccc2N1` .
Reply text: > 100 µM (inactive)

Inquiry: # lookup: GI50 of CC(C)(C)OC(=O)NC(Cc1ccc(OCc2ccccc2)cn1)C(=O)N1CCCC1 (stereo unspecified)
Reply text: 34.8 µM (inactive)

Inquiry: # input molecule: `CO/C(=N\N=C\c1ccc(C(F)(F)F)cc1)c1ccncc1` ; wanted: its GI50
Reply text: > 10 µM (inactive)

Inquiry: Please give the measured GI50 for this molecule: `Cc1cn2c(/C=C3/C(=O)Nc4ccccc43)c(-c3ccccc3)nc2s1`
Reply text: > 100 µM (inactive)

Inquiry: Value lookup for GI50; key = `O=[N+]([O-])/C(Cl)=C(\Nc1ccccc1)C(Cl)=C(Cl)Cl`
Reply text: 33.3 µM (inactive)

Inquiry: Need GI50, item OC1CCSc2ccccc21 (stereo unspecified)
Reply text: > 100 µM (inactive)

Inquiry: Which measured GI50 value corresponds to `COc1ccc(NCn2nc(CCCCCCCCc3nn(CNc4ccc(OC)cc4)c(=S)o3)oc2=S)cc1` ?
Reply text: > 100 µM (inactive)

Inquiry: Look at this molecule and give its reported GI50. `C=CCOCn1cc(C)c(=O)[nH]c1=O`
Reply text: > 100 µM (inactive)

Inquiry: Reported GI50, molecule `Cc1ccc(S(=O)(=O)N/C(=N\O)Nc2ccc(Cl)c(Cl)c2)cc1` : ____
Reply text: 1.98 µM (inactive)
